The following molecules are shown together with reported T/C values.
System: P388
Test summary: Antitumor activity in P388 inoculated mice following 5 mg/kg i.p. administration.
Format: functional, Mus musculus
Condition label: route intraperitoneal
Report as a plain number; the unit % is understood.

Example molecules with recorded T/C:
> print(dat)
                                smiles.code  readout.type  unit.abbreviation  numeric.result
1  CC(=O)Nc1ccc(C(c2ccc(C(C)C)cc(=O)c2O)c2ccc(C(C)C)cc(=O)c2O)cc1           T/C                  %             171
2  CC(C)c1ccc(C(c2ccc(OCC(=O)[O-])cc2)c2ccc(C(C)C)cc(=O)c2O)c(O)c(=O)c1.[Na+]           T/C                  %             109
3  CC(C)c1ccc(C(c2ccc(-c3ccccc3)cc2)c2ccc(C(C)C)cc(=O)c2O)c(O)c(=O)c1           T/C                  %             111
4  COc1ccc(C(c2ccc(C(C)C)cc(=O)c2O)c2ccc(C(C)C)cc(=O)c2O)cc1           T/C                  %             173
5  COc1cc(C(c2ccc(C(C)C)cc(=O)c2O)c2ccc(C(C)C)cc(=O)c2O)cc(OC)c1OC           T/C                  %             142
6  CC(C)c1ccc(C(c2ccc(C(c3ccc(C(C)C)cc(=O)c3O)c3ccc(C(C)C)cc(=O)c3O)cc2)c2ccc(C(C)C)cc(=O)c2O)c(O)c(=O)c1           T/C                  %             107
7  CC(C)c1ccc(C(c2ccccc2)c2ccc(C(C)C)cc(=O)c2O)c(O)c(=O)c1           T/C                  %             188
8  COC(=O)c1ccc(C(c2ccc(C(C)C)cc(=O)c2O)c2ccc(C(C)C)cc(=O)c2O)cc1           T/C                  %             145

T/C for CC(C)c1ccc(C(c2ccc(C(C)C)cc(=O)c2O)c2cccc3ccccc23)c(O)c(=O)c1 is 180

T/C for CC(C)c1ccc(C(c2ccc3c(c2)OCO3)c2ccc(C(C)C)cc(=O)c2O)c(O)c(=O)c1 is 182
